Values compiled from patent US7576224B2.

Test system: tobacco budworm (Heliothis virescens [Fabricius])
method: Foliar treated test against tobacco budworm (chick pea plants)
Type: in vivo
applied_conditions: rate of application 30 ppm; foliage; 96 hour exposure
What Percent Control TBW (Tobacco Budworm) was measured for each of the following?
# number only, unit % dropped from output

// query Provide measured Percent Control TBW (Tobacco Budworm) value, entry: ClC(Cl)=CCOc1cc(Cl)c(OCCCCOc2cccc3occc23)c(Cl)c1 [Z]
// result 60

// query Provide measured Percent Control TBW (Tobacco Budworm) value, entry: Cc1cc2cccc(OCCCCOc3c(Cl)cc(OCC=C(Cl)Cl)cc3Cl)c2o1 [X]
// result 96

// query Provide measured Percent Control TBW (Tobacco Budworm) value, entry: ClC(Cl)=CCOc1cc(Cl)c(OCCCCCc2cc3ccccc3o2)c(Cl)c1 [Y]
// result 5

// query Provide measured Percent Control TBW (Tobacco Budworm) value, entry: CC1(C)Cc2cccc(OCCCCOc3c(Cl)cc(OCC=C(Cl)Cl)cc3Cl)c2O1 [Compound 12]
// result 88

// query Provide measured Percent Control TBW (Tobacco Budworm) value, entry: ClC(Cl)=CCOc1cc(Cl)c(OCCCCOc2cccc3ccoc23)c(Cl)c1 [Compound W]
// result 62

====

What Photolysis Half-life was measured for each of the following?
method: Photostability (rate of photolysis, thin film on glass, Suntest CPS illuminator)
Format: physicochemical
applied_conditions: thin film on glass coverslips, filtered xenon lamp, about 25° C.
Number first, unit second: that is the form wanted.

// query Provide measured Photolysis Half-life value, entry: `ClC(Cl)=CCOc1cc(Cl)c(OCCCCOc2cccc3ccoc23)c(Cl)c1`
// result 11 h

// query Provide measured Photolysis Half-life value, entry: `ClC(Cl)=CCOc1cc(Cl)c(OCCCCOc2cccc3occc23)c(Cl)c1`
// result 4 h

// query Provide measured Photolysis Half-life value, entry: `Cc1cc2cccc(OCCCCOc3c(Cl)cc(OCC=C(Cl)Cl)cc3Cl)c2o1`
// result 6 h

// query Provide measured Photolysis Half-life value, entry: `CC1(C)Cc2cccc(OCCCCOc3c(Cl)cc(OCC=C(Cl)Cl)cc3Cl)c2O1`
// result 19 h

// query Provide measured Photolysis Half-life value, entry: `ClC(Cl)=CCOc1cc(Cl)c(OCCCCCc2cc3ccccc3o2)c(Cl)c1`
// result 4 h

====

method: Photostability (rate of photolysis, thin film on glass, Suntest CPS illuminator)
Format: physicochemical
applied_conditions: relative photolysis half-life compared to compound 12
reported_property: Percent of Compound 12 Half-life (%)
# number only, unit % dropped from output

// query Provide measured Percent of Compound 12 Half-life value, entry: CC1(C)Cc2cccc(OCCCCOc3c(Cl)cc(OCC=C(Cl)Cl)cc3Cl)c2O1 [Compound 12]
// result 100

// query Provide measured Percent of Compound 12 Half-life value, entry: Cc1cc2cccc(OCCCCOc3c(Cl)cc(OCC=C(Cl)Cl)cc3Cl)c2o1 [X]
// result 32

// query Provide measured Percent of Compound 12 Half-life value, entry: ClC(Cl)=CCOc1cc(Cl)c(OCCCCOc2cccc3ccoc23)c(Cl)c1 [Compound W]
// result 58

// query Provide measured Percent of Compound 12 Half-life value, entry: ClC(Cl)=CCOc1cc(Cl)c(OCCCCCc2cc3ccccc3o2)c(Cl)c1 [Y]
// result 21

// query Provide measured Percent of Compound 12 Half-life value, entry: ClC(Cl)=CCOc1cc(Cl)c(OCCCCOc2cccc3occc23)c(Cl)c1 [Z]
// result 21
